tested-system: tubulin (alpha/beta heterodimer), polymerised into microtubules or as free tubulin-dimers (porcine) (UniProt P02550)
experiment-summary: co-sedimentation; KIF19A protein (printed 'Two micromoles') with 0-40 μM taxol-stabilized MTs in PEM buffer, 25°C, 15 min, AMP-PNP; 38,000 xg 10 min; SDS-PAGE band intensities; one site binding model
recorded-endpoint: Kd (nM)
Quick reminder: number only, in nM, skip the unit.

Consider the following illustrative entries.
KIF19A-353 GS2R (G291 and S292 mutated to arginine) (domain or fragment) MKDSGDSKDQQLMVALRVRPISVAELEEGATLIAHKMDEQMVVLMDPMEDPDDILRAHRSREKSYLFDVAFDFTATQEMVYQATTKSLIEGVISGYNATVFAYGPTGCGKTYTMLGTDHEPGIYVRTLNDLFRAIEETSNDMEYEVSMSYLEIYNEMIRDLLNPALGYLELREDSKGVIQVAGITEVSTINAKEIMQLLMKGNRQRTQEPTAANQTSSRSHAVLQVAVRQRSRVKNILQEVRQGRLFMIDLAGSERASQTQNRGQRMKEGAHINRSLLALGNCINALSDKRRNKYINYRDSKLTRLLKDSLGGNSRTVMIAHISPASTAFEESRNTLTYAGRAKNIRTRVKQN; 600
KIF19A-353 (mouse KIF19A motor domain, monomeric construct) (domain or fragment) MKDSGDSKDQQLMVALRVRPISVAELEEGATLIAHKMDEQMVVLMDPMEDPDDILRAHRSREKSYLFDVAFDFTATQEMVYQATTKSLIEGVISGYNATVFAYGPTGCGKTYTMLGTDHEPGIYVRTLNDLFRAIEETSNDMEYEVSMSYLEIYNEMIRDLLNPALGYLELREDSKGVIQVAGITEVSTINAKEIMQLLMKGNRQRTQEPTAANQTSSRSHAVLQVAVRQRSRVKNILQEVRQGRLFMIDLAGSERASQTQNRGQRMKEGAHINRSLLALGNCINALSDKGSNKYINYRDSKLTRLLKDSLGGNSRTVMIAHISPASTAFEESRNTLTYAGRAKNIRTRVKQN; 600

In the following, a different binder is considered.
// sample KIF19A-353 PC2A (R56A-H58A-R59A-R61A) (domain or fragment) MKDSGDSKDQQLMVALRVRPISVAELEEGATLIAHKMDEQMVVLMDPMEDPDDILAAAASAEKSYLFDVAFDFTATQEMVYQATTKSLIEGVISGYNATVFAYGPTGCGKTYTMLGTDHEPGIYVRTLNDLFRAIEETSNDMEYEVSMSYLEIYNEMIRDLLNPALGYLELREDSKGVIQVAGITEVSTINAKEIMQLLMKGNRQRTQEPTAANQTSSRSHAVLQVAVRQRSRVKNILQEVRQGRLFMIDLAGSERASQTQNRGQRMKEGAHINRSLLALGNCINALSDKGSNKYINYRDSKLTRLLKDSLGGNSRTVMIAHISPASTAFEESRNTLTYAGRAKNIRTRVKQN , its Kd was 5800
